# assay text: Inhibition of recombinant N-terminal deca-His/SUMO tagged RTA (1 to 267 residues) (unknown origin) expressed in Escherichia coli BL21 (DE3) mediated ribosome depurination activity assessed as maximal inhibition of cellular ribosomal RNA depurination preincubated with compound for 5 mins followed by addition of rat liver ribosomes and measured after 5 mins by qRT-PCR analysis relative to control
# Assay type: subcellular
# details: time 10.0 min
Recorded Imax for the following compounds
Answer with a number only, understood to be in %.

[
  {
    "compound structure": "O=C(O)c1cc2c(s1)-c1ccc(F)cc1CC2",
    "unit of measure": "%",
    "Imax": 104
  },
  {
    "compound structure": "O=C(O)c1cc2c(s1)-c1ccccc1CC2",
    "unit of measure": "%",
    "Imax": 100
  },
  {
    "compound structure": "CC1(C)Cc2cc(C(=O)O)sc2-c2ccccc21",
    "unit of measure": "%",
    "Imax": 112
  }
]

Ask: Give Imax for `Cc1cccc(C)c1-c1ccc(C(=O)O)s1`
Reply: 102

====

# assay text: Inhibition of STX2A1 (unknown origin) mediated ribosomal depurination activity assessed as reduction in ribosomal RNA depurination preincubated with compound for 5 mins followed by addition of rat liver ribosomes and measured after 5 mins by qRT-PCR analysis
# Type: subcellular, Ribosome
measured metric: IC50 (µM)
Answer with a number only, understood to be in µM.

Ask: Give IC50 for `CC1(C)Cc2cc(C(=O)O)sc2-c2ccccc21`
Reply: 83
